# Experiment notes: AML differentiation inducers, ER-HoxA9 marrow cells – cell-based, GFP/MAC1 double positive, flow cytometry, validation set, primary screen (AID 588685);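 further: compound exposure lasts four days before antibody staining and flow analysis; 0% = DMSO wells and 100% = 5 µM fulvestrant positive control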
# Recorded conditions: active compounds read high, normalized: vehicle 0, fulvestrant 100
differentiation response values for the compounds below.
Express it in %; write the number only.

Cc1nc(NC(CC(C)C)C(=O)O)c2nc(C)oc2n1 (stereo not drawn) = -28
O=C(CN1CCN(Cc2ccccc2)CC1)N1CCCc2c1c(=O)oc1ccc(O)cc21 = 8.19
COC(=O)c1ccc(NC(=O)c2ccccc2SC)cc1 = 5.13
CCOc1ccc(N2C(=O)CNC2=S)cc1 = 3.88
CC(=O)SC1CC2=CC(=O)CCC2(C)C2CCC3(C)C(CCC34CCC(=O)O4)C12 (stereo not drawn) = 3.18
S=C(NCc1ccccc1)NCc1cccc(CNC(=S)NCc2ccccc2)c1 = 1.91
CC(=O)O[C@]1(C(C)=O)CC[C@H]2[C@@H]3C[C@H](C)C4=CC(=O)CC[C@]4(C)[C@H]3CC[C@@]21C = 10
COc1cc(NC(=S)NC(=O)c2cccs2)ccc1NC(=O)C(C)C = -28

Turning to the following compound.
// query Please report the measured differentiation response for Cc1cccc(NC(=O)c2cc3ccccc3o2)c1
// result 3.28

* * *

# Experimental system: ATP-binding cassette sub-family B member 6 (Homo sapiens) (UniProt Q9NP58)
# Sequence (Q9NP58 whole entry, looked up): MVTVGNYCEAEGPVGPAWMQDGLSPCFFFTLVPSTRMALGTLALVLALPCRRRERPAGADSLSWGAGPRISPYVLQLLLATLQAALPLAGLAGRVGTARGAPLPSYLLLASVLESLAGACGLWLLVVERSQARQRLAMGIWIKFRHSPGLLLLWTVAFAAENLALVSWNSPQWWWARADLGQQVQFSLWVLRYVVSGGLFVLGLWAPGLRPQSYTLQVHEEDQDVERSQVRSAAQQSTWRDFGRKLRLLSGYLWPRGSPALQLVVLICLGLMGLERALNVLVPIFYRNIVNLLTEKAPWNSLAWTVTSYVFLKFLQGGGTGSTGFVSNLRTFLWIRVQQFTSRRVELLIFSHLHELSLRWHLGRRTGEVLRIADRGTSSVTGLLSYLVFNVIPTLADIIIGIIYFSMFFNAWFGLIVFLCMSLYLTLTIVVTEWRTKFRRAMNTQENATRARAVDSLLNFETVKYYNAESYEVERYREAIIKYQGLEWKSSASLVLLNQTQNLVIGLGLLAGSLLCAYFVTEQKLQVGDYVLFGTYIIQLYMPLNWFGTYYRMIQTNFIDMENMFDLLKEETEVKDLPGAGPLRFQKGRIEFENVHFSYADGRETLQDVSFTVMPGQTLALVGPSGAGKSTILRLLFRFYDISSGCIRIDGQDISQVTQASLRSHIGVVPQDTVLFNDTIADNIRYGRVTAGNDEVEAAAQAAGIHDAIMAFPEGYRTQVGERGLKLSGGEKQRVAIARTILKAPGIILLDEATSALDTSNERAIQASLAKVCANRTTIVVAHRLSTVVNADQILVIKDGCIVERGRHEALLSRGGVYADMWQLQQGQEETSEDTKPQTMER
# Experiment notes: blockers of ABCB6-driven porphyrin uptake – K562-ABCB6 cells, flow cytometry, validation set, pilot screen (AID 588550);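 further: 0% = DMSO wells and 100% = benzethonium chloride 70 µM positive control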
# Recorded conditions: K562-ABCB6 porphyrin accumulation, 1 h, at 10 µM
Calls of active or inactive are those of the source.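 How the source made its calls: active means inhibition above the screen-wide mean plus 3 SD, about 51%; inactive means the rest.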
Pick one and only one: label 1 (active), label 0 (inactive)

Cc1cc(=O)oc2c(CN(C)Cc3ccccc3)c(O)ccc12 = label 0
CSCCC(NC(=O)OC(C)(C)C)C(=O)Oc1ccc2c(=O)c(-c3ccc4c(c3)OCCO4)coc2c1 (configuration not stated) = label 0
CC(C)[C@H]1CN(C)CCN1Cc1cn(C)nc1-c1cccc(Cl)c1 = label 0
CC(C)CN1CCN(Cc2ccc(C#CC(C)(C)O)cc2)CC1CCO (configuration not stated) = label 0
CC(C[N+](C)(C)C)OC(N)=O (configuration not stated) = label 0
O=C(CSCc1ccccc1)NCCCN1CCOCC1 = label 0
CC(NC(=O)OCc1ccccc1)C(=O)N1CC(O)CC1C(=O)O (configuration not stated) = label 0
Cc1ccc([N+](=O)[O-])cc1NC1OC(CO)C(O)C1O (configuration not stated) = label 0

// query What was the test verdict on NC(N)=NC(N)=Nc1ccc2ccccc2c1 ?
// result label 0

// query What was the test verdict on Cn1cc(CN2CCN(CCO)CC2)c(-c2ccc(Oc3ccccc3)cc2)n1 ?
// result label 0

// query What was the test verdict on CC(=O)[C@H]1[C@H](C#N)C[C@H]2[C@@H]3CC=C4C[C@@H](O)CC[C@]4(C)[C@H]3CC[C@@]21C ?
// result label 0

// query What was the test verdict on Nc1ccc(S(=O)(=O)NC(=O)c2ccccc2)cc1 ?
// result label 0

// query What was the test verdict on CC1(C)Cc2ccccc2-c2n[nH]c(=S)n21 ?
// result label 0

// query What was the test verdict on CN1CCCN=C1COC(=O)C(O)(c1ccccc1)C1CCCCC1 (configuration not stated) ?
// result label 0

// query What was the test verdict on CN(Cc1c(C(=O)N(C)Cc2ccccc2)nc2ccccn12)CC1Cc2ccccc2O1 (configuration not stated) ?
// result label 0

// query What was the test verdict on CC1(C)S[C@@H]2[C@H](NC(=O)Cc3ccccc3)C(=O)N2[C@H]1C(=O)O ?
// result label 0

// query What was the test verdict on CC(C)(C)OC(=O)N1CC(O)CC1C(=O)OCC(=O)c1ccc(Cl)cc1 (configuration not stated) ?
// result label 0
